Tested on: Escherichia coli TOP10;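 further: peptides expressed intracellularly from a pBAD plasmid library in pooled LB shake-flask culture, induced with 0.3% L-arabinose, DNA abundance read by NGS, three biological replicates, DESeq2 with apeglm shrinkage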
Experiment: shrunken log2 fold change of peptide-encoding DNA abundance (4.5 h post-induction vs induction); higher = less antimicrobial activity (less host growth inhibition)
Settings: time post-induction: 4.5 h; library: site-saturation at positions 5, 18, 19, 20
metric: shrunken log2 fold change
Lab note: jot down the number only; don't add units.

Record excerpt, results attached:
RRIRVRPPRLPRPRPRPQEFPRP    -0.06
RRIRGRPPRLPRPRPRPNKYPRP    -0.0952
RRIRTRPPRLPRPRPRPTDHPRP    -0.283
RRIRTRPPRLPRPRPRPLRAPRP    1.05
RRIRDRPPRLPRPRPRPPVQPRP    0.104

stdin: Output shrunken log2 fold change of RRIRVRPPRLPRPRPRPPGFPRP
stdout: 0.842

stdin: Output shrunken log2 fold change of RRIRNRPPRLPRPRPRPIESPRP
stdout: -0.00107

stdin: Output shrunken log2 fold change of RRIRYRPPRLPRPRPRPFTKPRP
stdout: -0.184
